Test: Example 11: plasma pharmacokinetics (toxicokinetics) of tozadenant in mice after twice daily oral administration
Format: in vivo, Crl:CD1(ICR) mice
Conditions: male, Crl:CD1(ICR), mouse, plasma, po, 100 mg/kg/day, Group 1, Male, 100 mg/kg/day (50 mg/kg/dose), oral, dosing at 0, 8 hr; read-out: Cmax
ASSAY_READOUT: Cmax (ng/mL)

INSERT INTO assay_data (molecule, assay_readout, number) VALUES
  ('COc1ccc(N2CCOCC2)c2sc(NC(=O)N3CCC(C)(O)CC3)nc12 [SYN-115]', 'Cmax', 764);

----------
Experiment: Example 11: plasma pharmacokinetics (toxicokinetics) of tozadenant in mice after twice daily oral administration
Format: in vivo, Crl:CD1(ICR) mice
Conditions: male, Crl:CD1(ICR), mouse, plasma, po, 2000 mg/kg/day, Group 4, Male, 2000 mg/kg/day (1000 mg/kg/dose), oral, dosing at 0, 8 hr
ASSAY_READOUT: AUC(0-inf) (ng·h/mL)

INSERT INTO results (compound, number) VALUES
  ('COc1ccc(N2CCOCC2)c2sc(NC(=O)N3CCC(C)(O)CC3)nc12 [SYN-115]', 43100);
